Numbers sourced from patent US20150218281A1.

Measured Binding Level sample 2 (RU), listed per entry.
Target: T1, recombinant human OX40L (extracellular domain, R&D Systems) (human, UniProt P23510 51-183)
T1 construct: also called hOX40L; rec. hOX40L
T1 sequence: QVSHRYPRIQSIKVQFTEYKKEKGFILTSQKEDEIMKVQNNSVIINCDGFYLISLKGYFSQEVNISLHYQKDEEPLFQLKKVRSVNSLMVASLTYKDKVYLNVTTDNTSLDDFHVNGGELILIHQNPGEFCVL
Assay: SPR, second injection after competitor OX40L18E09
Express it in RU; write the number only.

Before answering, review these 2 worked examples.
INSERT INTO measurements (binder, property_measured, reading_unit, measured_value) VALUES
  ('OX40L01E07 (VHH, monovalent Nanobody from E. coli; not shown: C-terminal c-myc and His6 tag) VHH: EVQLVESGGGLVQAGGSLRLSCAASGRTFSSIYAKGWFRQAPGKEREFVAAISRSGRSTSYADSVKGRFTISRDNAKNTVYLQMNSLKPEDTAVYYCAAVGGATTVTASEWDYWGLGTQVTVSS', 'Binding Level sample 2 (RU)', 'RU', 238),
  ('OX40L15B07 (VHH, monovalent Nanobody from E. coli; not shown: C-terminal c-myc and His6 tag) VHH: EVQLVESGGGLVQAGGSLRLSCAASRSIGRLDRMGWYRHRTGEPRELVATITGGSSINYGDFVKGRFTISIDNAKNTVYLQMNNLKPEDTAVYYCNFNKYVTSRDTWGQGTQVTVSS', 'Binding Level sample 2 (RU)', 'RU', 189);

Next binder, Binding Level sample 2 (RU) to be filled in.
*Q* What Binding Level sample 2 (RU) value was documented for this binder, OX40L01B11 (VHH, monovalent Nanobody from E. coli; not shown: C-terminal c-myc and His6 tag) VHH: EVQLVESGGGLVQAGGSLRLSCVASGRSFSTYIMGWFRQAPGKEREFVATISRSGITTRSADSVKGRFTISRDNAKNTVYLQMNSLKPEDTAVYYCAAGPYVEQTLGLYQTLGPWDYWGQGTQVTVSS ?
*A* 238
